TESTED_SYSTEM: PPAR-α (Homo sapiens, UniProt Q07869)
Sequence (Q07869 whole entry, species assumed): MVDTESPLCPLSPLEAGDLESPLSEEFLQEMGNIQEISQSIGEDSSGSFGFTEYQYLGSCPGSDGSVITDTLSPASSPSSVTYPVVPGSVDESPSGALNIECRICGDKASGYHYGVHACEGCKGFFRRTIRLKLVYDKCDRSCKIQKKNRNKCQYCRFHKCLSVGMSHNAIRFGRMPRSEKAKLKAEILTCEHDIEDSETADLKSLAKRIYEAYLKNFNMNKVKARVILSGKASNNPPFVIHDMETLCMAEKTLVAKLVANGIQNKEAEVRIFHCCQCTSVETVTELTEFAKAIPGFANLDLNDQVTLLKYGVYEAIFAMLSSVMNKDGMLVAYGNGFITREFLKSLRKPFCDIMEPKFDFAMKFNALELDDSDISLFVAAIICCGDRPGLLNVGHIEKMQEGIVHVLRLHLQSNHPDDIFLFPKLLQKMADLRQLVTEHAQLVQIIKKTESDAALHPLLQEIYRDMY
ASSAY_SUMMARY: Scintillation Proximity Assay (SPA), displacement of 3H labeled GW2331
Type: binding
CONDITION_CONTEXT: 3H GW2331 displacement, read-out: PPAR-alpha Ki
MEASUREMENT_TYPE: Ki (nM)
Numeric only. Scale: nM

COMPOUND	Ki [nM]
Cc1ccc(N2CCC(CCOc3cccc(-c4cccc(OC(C)(C)C(=O)O)c4)c3)CC2)nn1 [Example A-03]	19000

stdin: Form field: Ki recorded for Cc1oc(-c2ccccc2)nc1CCCOC(=O)NCc1ccc(OC(C)(C)C(=O)O)cc1 [Example B-07] with PPAR-α (Homo sapiens, UniProt Q07869) (enter value)
stdout: 12000

stdin: Can you look up Ki on PPAR-α (Homo sapiens, UniProt Q07869) for COC(C)(Cc1ccc(OCCCc2nc(-c3ccccc3)oc2C)cn1)C(=O)O [Example D-28] ?
stdout: 4800

stdin: What measured Ki is associated with CCC(Oc1cccc(CNC(=O)OCCCc2nc(-c3ccccc3)oc2C)c1)C(=O)O (centres unmarked) [Example B-18] on PPAR-α (Homo sapiens, UniProt Q07869)?
stdout: 82

stdin: Item Cc1oc(-c2ccccc2)nc1CCOc1ccc(CC2(c3nnn[nH]3)CCCO2)cn1 (centres unmarked) [Example C-95] with PPAR-α (Homo sapiens, UniProt Q07869) - Ki?
stdout: 8600

stdin: What measured Ki is associated with Cc1oc(-c2ccc(C(F)(F)F)c(F)c2)nc1CCOc1ccc(CC2(C(=O)O)CCC2)cc1 [Example C-24] on PPAR-α (Homo sapiens, UniProt Q07869)?
stdout: 22

stdin: Give Ki (PPAR-α (Homo sapiens, UniProt Q07869)) of the following compound: Cc1oc(-c2ccccc2)nc1CCOc1ccc(OC2(C(=O)O)CCC2)cc1 [Example C-40]
stdout: 700

stdin: Could you share what Ki was measured for Cc1oc(-c2ccc(C#N)cc2)nc1CCOc1ccc(CC2(C(=O)O)CCCO2)cn1 (centres unmarked) [Example C-61] , tested on PPAR-α (Homo sapiens, UniProt Q07869)?
stdout: 240

stdin: // lookup Ki | system=PPAR-α (Homo sapiens, UniProt Q07869) | key= Cc1oc(-c2ccccc2C#N)nc1CCOc1ccc(CC2(C(=O)O)CCC2)cc1 [Example C-22]
stdout: 2100

stdin: Lab request: please report Ki under test system PPAR-α (Homo sapiens, UniProt Q07869) for Cc1oc(-c2ccccc2)nc1CCOc1ccc2cc(CC3(C(=O)O)CCCO3)ccc2c1 (centres unmarked) [Example C-91]
stdout: 1800

stdin: Lab request: please report Ki under test system PPAR-α (Homo sapiens, UniProt Q07869) for O=C(O)C1(Oc2ccc(OCc3nc(-c4ccccc4)oc3-c3ccccc3)cc2)CCC1 [Example C-36]
stdout: 21000

stdin: # query: Ki | item Cc1oc(-c2ccccc2)nc1CCOc1ccc(CC2(C(=O)O)CCCCC2)cn1 [Example C-47] | system: PPAR-α (Homo sapiens, UniProt Q07869)
stdout: 8300

stdin: For PPAR-α (Homo sapiens, UniProt Q07869), provide Ki of Cc1oc(-c2ccccc2)nc1COc1ccc(CC2(C(=O)O)CCC2)cc1 [Example C-17] please.
stdout: 3200

Where these numbers come from: patent US20050234066A1
